Some compounds, each annotated with its measured GI50.
Test system: IGROV1 ovarian
EXPERIMENTAL_PROTOCOL: NCI tumour cell line growth inhibition, 48 h
READOUT_TYPE: GI50

| SMILES_STRING | TARGET_OR_SYSTEM | MEAS_VALUE |
| --- | --- | --- |
| COc1ccc2nc3cc(Cl)ccc3c(N3CCN(c4ccnc(N5CCN(C)CC5)n4)CC3)c2c1 | IGROV1 ovarian | 2.24 µM |
| C[C@@H](NC(=O)c1ccc(F)cc1)c1ccc2c(c1)CCN2C(=O)C1CCOCC1 | IGROV1 ovarian | > 100 µM |
| COc1cc(-c2ncn(/C=C\c3nnco3)n2)cc(C(F)(F)F)c1 | IGROV1 ovarian | 1.89 µM |
| NCc1ccc(-c2nc(-c3ccc(Cl)c(O)c3)c(-c3ccncc3)[nH]2)cc1 | IGROV1 ovarian | > 25 µM |
| O=C1/C(=C/c2ccccc2O)N=C(c2ccccc2)N1c1cc(C(F)(F)F)ccc1Cl | IGROV1 ovarian | 14.3 µM |
| c1ccc2c(CNCCN3CCNCC3)c3ccccc3c(CNCCN3CCNCC3)c2c1 | IGROV1 ovarian | 19.8 µM |

* * *

System: SK-MEL-5 melanoma
EXPERIMENTAL_PROTOCOL: NCI tumour cell line growth inhibition, 48 h
READOUT_TYPE: GI50

| MOLECULE | MEAS_VALUE |
| --- | --- |
| CC1SC(c2ccc(Cl)cc2)N(CCc2cccs2)C1=O (stereo not given) | 1.43 µM |
| N#C/C(=C\c1cc2ccc(N3CCC3)cc2oc1=O)C(=O)N(CC(=O)O)CC(=O)O | > 100 µM |
| COc1ccc2c(c1)C(=O)c1c-2c(=O)n(CCCN(C)C)c2cc(OC)c(OC)cc12 | 86.1 µM |
| [Cl][Cu][Cl] | > 10 µM |
| Nc1nc(-c2ccc(Cl)cc2)nc2c1sc(=S)n2-c1ccccc1 | 2.91 µM |
| c1ccc2c(CNCCN3CCNCC3)c3ccccc3c(CNCCN3CCNCC3)c2c1 | 15.6 µM |
| Nc1nc2ccccc2c2c1S(=O)(=O)c1ccc(Cl)cc1C2=O | 2.02 µM |
| CC(=O)[CH-]C(C)=O.CC(=O)[CH-]C(C)=O.CC(=O)[CH-]C(C)=O.[Ga+3] | > 100 µM |
| COC1=C(OC)[C@]2(OC)c3c(O)c(OC)c4c(c3O[C@@]23O[C@@H](c2ccccc2)CC=C3C1=O)[C@@H](OC)C[C@H](c1ccccc1)O4 | 0.739 µM |
| COc1ccc(COc2cc3oc(=O)c4cc(C(C)O)ccc4c3cc2OC)cc1 (stereo not given) | 12.1 µM |

* * *

System: K-562 leukemia
EXPERIMENTAL_PROTOCOL: NCI tumour cell line growth inhibition, 48 h
Some molecules, each annotated with its measured TGI.

| MOLECULE | TGI |
| --- | --- |
| O=C(CO)C1CC2C=CC1C2 (stereo not given) | > 100 µM |
| c1ccc2cc3c(cc2c1)OP1(Oc2cccc4cccnc24)(O3)Oc2cc3ccccc3cc2O1 | > 40.3 µM |
| COc1cc(/C=C/C(=O)O[C@H]2[C@H](O[C@@H]3O[C@@H](C)[C@H](O)[C@@H](O)[C@H]3O)[C@@H](O)[C@H](OCCc3ccc(O)c(O)c3)O[C@@H]2COC2OCC(O)(CO)C2O)ccc1O (stereo not given in full) | > 100 µM |
| O=C(Nc1nc2ncn(CCO)c2c(=O)[nH]1)c1ccccc1 | > 100 µM |
| O=S(=O)(NCCCNc1nccc(-c2c(-c3ccc(F)cc3)nc3sccn23)n1)c1ccc(F)cc1 | > 100 µM |
| CSC(=N)N1N=C2/C(=C/c3ccccc3)CCC[C@H]2[C@H]1c1ccccc1 | 6.09 µM |
| FC(F)(F)c1cccnc1Sc1nc2ccccc2s1 | > 100 µM |
| CSc1nc2c3ccccc3ccn2c1C(=O)N/N=C/c1ccccc1 | > 100 µM |
| O=C(c1ccco1)c1c(C(F)(F)F)n([O-])c2cc(F)c(F)cc2[n+]1=O | 8.34 µM |
| Clc1nc(Cl)c2ncn(CCOCCn3cnc4c(Cl)nc(Cl)nc43)c2n1 | > 100 µM |
| CCOC(=O)/C=C\C(C#N)(C#N)N=Cc1ccsc1 | 14.3 µM |
| COc1cc(/C=C/C2=C(C#N)C(=O)OC2(C)C)ccc1O | > 100 µM |
| O=C(O)C12CC3CC(CC(F)(C3)C1)C2 | > 100 µM |
| N#CCNC(=O)c1ccc(-c2ccnc(Nc3ccc(N4CCOCC4)cc3)n2)cc1 | > 100 µM |
| O=C(N/N=C(\C1=Nc2ccc(Cl)cc2NC1O)C(O)/C=C/c1ccccc1)c1ccncc1 (stereo not given) | > 100 µM |
| C=CC(=O)N[C@@H](/C=C/C(=O)OCC)Cc1ccc(-c2cc(Cl)cc(Cl)c2)cc1 | > 100 µM |
| Nc1nc2ccccc2c2c1S(=O)(=O)c1ccc(Cl)cc1C2=O | > 50 µM |
| COc1ccccc1C1c2cc3c(cc2OC(N2CCCC2)C1C)OCO3 (stereo not given) | > 53.3 µM |
| C[C@@]1(OC(=O)c2cc([N+](=O)[O-])cc([N+](=O)[O-])c2)C[C@@H]2CCCC[C@@H]21 | > 100 µM |
| COc1cc(-c2ncn(/C=C\c3nnco3)n2)cc(C(F)(F)F)c1 | > 100 µM |

Values were extracted from PubChem BioAssay (NCI).
